Test: binders of probe aFGF10 on microarray, primary screen, stem cell growth factor project, biochemical, small-molecule microarray, fluorescence 635/667 (AID 1071);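 also: score merges 667 nm spot intensity and signal to noise from triplicate slides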
Conditions: higher = more signal
Catalogue of compounds with associated composite z-score

>  <COMPOUND>
CC(C)CON=C1C[C@@H](O)[C@@H](O)[C@@H]2[C@@H]3C(=O)N(C[C@@H]4CCCO4)C(=O)[C@@H]3CC[C@@H]12

>  <composite z-score>
0.0654

$$$$
>  <COMPOUND>
COC(=O)CC=C[C@@H](C)[C@@H](C=NO[C@@H](C)c1cc(-c2c(C)cc(C)cc2C)no1)NS(=O)(=O)c1ccc(C)cc1

>  <composite z-score>
-1.29

$$$$
>  <COMPOUND>
CC(=O)O[C@H]1C2=CO[C@H](C)[C@H]3[C@H]4C5=C([C@H](O)[C@H]6O[C@H]6C5=O)[C@H](OC4C)[C@@]23C(=O)[C@@H]2O[C@@H]21 (some centres not stated)

>  <composite z-score>
0.705

$$$$
>  <COMPOUND>
COC(=O)CC=C[C@@H](C)[C@@H](C=NO[C@@H]1O[C@H](COC(C)=O)[C@@H](OC(C)=O)[C@H](OC(C)=O)[C@H]1OC(C)=O)NS(=O)(=O)c1ccc(C)cc1

>  <composite z-score>
0.367

$$$$
>  <COMPOUND>
CC(CCN1CCCc2nc(C)c(C)cc21)=NOC(C)CN1CCCCc2nc(C)c(C)cc21 (configuration not stated)

>  <composite z-score>
0.644

$$$$
>  <COMPOUND>
C[C@@H](c1ccccc1)N1C(=O)[C@H]2[C@H]3[C@H](O)[C@H](O)CC(=O)[C@H]3CC[C@H]2C1=O

>  <composite z-score>
0.443

$$$$
>  <COMPOUND>
CON=C(C)CCC(=O)OC[C@H]1O[C@H](c2ccccc2)C=C[C@@H]1Oc1ccc(OC)cc1

>  <composite z-score>
0.111

$$$$
